Assay: Excretion after intravenous administration in rats (ICP-AES)
Type: in vivo
Details: i.v., 50 μmol of total gadolinium/kg of body weight, 14 days after administration
Description: After intravenous administration of 50 μmol of total gadolinium/kg of body weight of the gadolinium complexes (I-X) in rats (n=3), the metal content was l determined in fractions up to 14 days after administration by means of atomic emission spectrometry (ICP-AES) in the excretion media of urine and feces, as well as in the body (the rest of the body).
reported metric: Body Retention 14 days (%)
Your answer is read as %, so omit the unit and give the number.

Need Body Retention 14 days of CC(C(=O)NCC(=O)NCCCC[C@H](NC(=O)CO[C@H]1O[C@H](CO)[C@@H](O)[C@H](O)[C@@H]1O)C(=O)NCCCC(F)(F)C(F)(F)C(F)(F)C(F)(F)C(F)(F)C(F)(F)F)N1CCN(CC(=O)[O-])CCN(CC(=O)[O-])CCN(CC(=O)[O-])CC1.[Gd+3] (some centres unmarked) , thanks. 0.0

Okay, and CC(C(=O)NCC(=O)N[C@@H](CCCCNC(=O)CO[C@H]1O[C@H](CO)[C@@H](O)[C@H](O)[C@@H]1O)C(=O)N(C)CCC(F)(F)C(F)(F)C(F)(F)C(F)(F)C(F)(F)C(F)(F)C(F)(F)C(F)(F)F)N1CCN(CC(=O)[O-])CCN(CC(=O)[O-])CCN(CC(=O)[O-])CC1.[Gd+3] (some centres unmarked) ? 0.0

Okay, and COCCN(CCOCCC(F)(F)C(F)(F)C(F)(F)C(F)(F)C(F)(F)C(F)(F)C(F)(F)C(F)(F)F)C(=O)[C@H](CCCCNC(=O)CNC(=O)C(C)N1CCN(CC(=O)[O-])CCN(CC(=O)[O-])CCN(CC(=O)[O-])CC1)NC(=O)CO[C@H]1O[C@H](CO)[C@@H](O)[C@H](O)[C@@H]1O.[Gd+3] (some centres unmarked) ? 2.6

Okay, and COC[C@H]1O[C@H](OCC(=O)NC(CCCCNC(=O)CNC(=O)C(C)N2CCN(CC(=O)[O-])CCN(CC(=O)[O-])CCN(CC(=O)[O-])CC2)C(=O)N(C)CCC(F)(F)C(F)(F)C(F)(F)C(F)(F)C(F)(F)C(F)(F)C(F)(F)C(F)(F)F)[C@@H](OC)[C@@H](OC)[C@@H]1OC.[Gd+3] (some centres unmarked) ? 5.4

Okay, and CC(C(=O)NCC(=O)NCCCC[C@H](NC(=O)CO[C@H]1O[C@H](CO)[C@@H](O)[C@H](O)[C@@H]1O)C(=O)NCCCOCCC(F)(F)C(F)(F)C(F)(F)C(F)(F)C(F)(F)C(F)(F)C(F)(F)C(F)(F)F)N1CCN(CC(=O)[O-])CCN(CC(=O)[O-])CCN(CC(=O)[O-])CC1.[Gd+3] (some centres unmarked) ? 1.5

Okay, and CC(C(=O)NCC(=O)NCCCC[C@H](NC(=O)COCC(CO)(CO)CO)C(=O)NCCCC(F)(F)C(F)(F)C(F)(F)C(F)(F)C(F)(F)C(F)(F)C(F)(F)C(F)(F)F)N1CCN(CC(=O)[O-])CCN(CC(=O)[O-])CCN(CC(=O)[O-])CC1.[Gd+3] (some centres unmarked) ? 0.0

Okay, and COCCN(CCC(F)(F)C(F)(F)C(F)(F)C(F)(F)C(F)(F)C(F)(F)C(F)(F)C(F)(F)F)C(=O)[C@H](CCCCNC(=O)CNC(=O)C(C)N1CCN(CC(=O)[O-])CCN(CC(=O)[O-])CCN(CC(=O)[O-])CC1)NC(=O)CO[C@H]1O[C@H](CO)[C@@H](O)[C@H](O)[C@@H]1O.[Gd+3] (some centres unmarked) ? 0.0

Okay, and CC(C(=O)NCC(=O)N[C@@H](CCCCNC(=O)CO)C(=O)NCCCC(F)(F)C(F)(F)C(F)(F)C(F)(F)C(F)(F)C(F)(F)C(F)(F)C(F)(F)F)N1CCN(CC(=O)[O-])CCN(CC(=O)[O-])CCN(CC(=O)[O-])CC1.[Gd+3] (some centres unmarked) ? 0.2
